tested on: Nitric oxide synthase (Mus musculus)
Construct: endogenous in cells; crude lysate
experimental protocol: Screen 1: nitric oxide synthase inhibition, 3H-L-arginine to 3H-L-citrulline conversion, lysate of induced J774A-1 cells
measurement conditions: enzyme from LPS/IFNg-induced murine macrophage cell line J774A-1; 1 hour at room temperature
Description: The activity of compounds of formula (I), or a pharmaceutically acceptable salt, enantiomer or racemate thereof, may be screened for nitric oxide synthase inhibiting activity by a procedure based on that of Förstermann et al., Eur. J. Pharm., 1992, 225, 161-165. Nitric oxide synthase converts ^3H-L-arginine into ^3H-L-citrulline which can be separated by cation exchange chromatography and quantified by liquid scintillation counting. […]
Counter-ions that a name gives are not always drawn.
attribute measured: IC50

Task: Recorded IC50 for Cc1cc(S[C@H](CN)c2ccccc2)c(C#N)s1 [Example 1, oxalate] , please?
Result: < 10 µM

----------
tested on: Recombinant human iNOS (Homo sapiens, UniProt P35228)
experimental protocol: Screen 2: recombinant human NO synthase inhibition, L-[3H]citrulline formation
measurement conditions: recombinant human iNOS expressed in E. coli; 60 min pre-incubation with NADPH
pIC50: −log10 of the molar value. Where a name gives a salt, the structure may show the parent alone.
attribute measured: pIC50

Task: Recorded pIC50 for Cc1cc(S[C@H](CN)c2ccccc2)c(C#N)s1 [Example 1, oxalate] , please?
Result: > 5.00

// provenance: patent US7329686B2
